Target sequence: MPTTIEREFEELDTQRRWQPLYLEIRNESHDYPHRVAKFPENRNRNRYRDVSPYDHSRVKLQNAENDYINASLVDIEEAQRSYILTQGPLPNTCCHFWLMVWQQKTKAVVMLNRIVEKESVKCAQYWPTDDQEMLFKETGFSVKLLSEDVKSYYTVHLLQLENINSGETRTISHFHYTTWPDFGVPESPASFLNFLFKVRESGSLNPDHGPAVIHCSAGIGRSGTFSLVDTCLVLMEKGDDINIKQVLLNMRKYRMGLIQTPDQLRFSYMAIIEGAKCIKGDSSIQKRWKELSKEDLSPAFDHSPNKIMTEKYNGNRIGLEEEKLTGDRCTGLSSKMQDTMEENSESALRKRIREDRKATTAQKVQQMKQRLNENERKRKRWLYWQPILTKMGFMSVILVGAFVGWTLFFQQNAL
pIC50: −log10 of the molar value.
QUANTITY_NAME: pIC50

Some solved cases for reference:
> print(dat)
                                   molecule  quantity.name  endpoint.result
1  CCCCNc1ccc(-c2ccc(O)c(N3CC(=O)NS3(=O)=O)c2F)cn1          pIC50           ≥ 6.00
2  O=C1CN(c2c(O)ccc(-c3cc(N4CCCCC4)n[nH]3)c2F)S(=O)(=O)N1          pIC50           ≥ 6.00
3  O=C1CN(c2c(O)ccc(C3=CC(CO)NC3)c2F)S(=O)(=O)N1 (centres unmarked)          pIC50           ≥ 6.00
4  O=C1CN(c2c(O)ccc(-c3ccc(NS(=O)(=O)C4CC4)c(F)c3)c2F)S(=O)(=O)N1          pIC50           ≥ 6.00

Requested read-out: pIC50. Entry: `O=C1CN(c2c(O)ccc(-c3cnn(C4CC4)c3)c2Cl)S(=O)(=O)N1`
≥ 6.00

Data request, read-out pIC50, for `O=C1CN(c2c(O)ccc(-c3cnn(CCC(F)F)c3)c2F)S(=O)(=O)N1`
≥ 6.00

###

- SYSTEM_UNDER_TEST: PTPN2 (i.e., TC-PTP) (Homo sapiens, UniProt P17706)
- Sequence (P17706 1-415): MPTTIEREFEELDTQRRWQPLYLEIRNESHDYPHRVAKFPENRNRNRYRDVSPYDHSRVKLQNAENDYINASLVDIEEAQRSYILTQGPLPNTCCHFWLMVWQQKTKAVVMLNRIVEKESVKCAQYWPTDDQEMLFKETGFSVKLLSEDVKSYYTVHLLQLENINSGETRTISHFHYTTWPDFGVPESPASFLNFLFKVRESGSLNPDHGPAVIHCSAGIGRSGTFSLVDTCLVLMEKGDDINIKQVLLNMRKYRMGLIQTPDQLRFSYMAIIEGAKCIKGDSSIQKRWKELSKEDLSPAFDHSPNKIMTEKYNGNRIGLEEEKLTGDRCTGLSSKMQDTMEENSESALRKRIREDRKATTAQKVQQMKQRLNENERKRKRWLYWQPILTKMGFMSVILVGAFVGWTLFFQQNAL
Property: IC50; scope: individual molecules

# count of solved cases: 5
> print(dat)
                                   molecule                         system.under.test  endpoint.result
1  O=C1CN(c2c(O)ccc(-c3cn(-c4ccccc4F)cn3)c2F)S(=O)(=O)N1 [Compound 437]  PTPN2 (i.e., TC-PTP) (Homo sapiens, UniProt P17706)        ≤ 1000 nM
2  CC(C)CCn1cc(-c2cc(O)cc(N3CC(=O)NS3(=O)=O)c2F)cn1 [Compound 221]  PTPN2 (i.e., TC-PTP) (Homo sapiens, UniProt P17706)        > 1000 nM
3  O=C1CN(c2c(O)ccc(C3=CCC(NCC4CC4)CC3)c2F)S(=O)(=O)N1 (stereo not drawn) [Compound 315]  PTPN2 (i.e., TC-PTP) (Homo sapiens, UniProt P17706)        ≤ 1000 nM
4  O=C1CN(c2c(O)ccc(-c3cnn(C4CC5(CCC5)C4)c3)c2F)S(=O)(=O)N1 [Compound 242]  PTPN2 (i.e., TC-PTP) (Homo sapiens, UniProt P17706)        ≤ 1000 nM
5  Cc1c(-c2cnn(CCC(C)C)c2)ccc(O)c1N1CC(=O)NS1(=O)=O [Compound 119]  PTPN2 (i.e., TC-PTP) (Homo sapiens, UniProt P17706)        ≤ 1000 nM

Query molecule follows.
Would you kindly share the measured IC50 for CC(C)(C#N)c1cc(-c2ccc(O)c(N3CC(=O)NS3(=O)=O)c2F)[nH]n1 [Compound 368] ?
≤ 1000 nM

###

Below are molecules with their pIC50 as measured on PTPN2 (i.e., TC-PTP) (Homo sapiens, UniProt P17706).
pIC50: −log10 of the molar value.

// solved cases for pIC50 follow
> print(dat)
                                   molecule  endpoint.result
1  CN1CCc2cc(-c3ccc(O)c(N4CC(=O)NS4(=O)=O)c3F)ccc2C1 [Compound 109]           ≥ 6.00
2  Cn1ncc2cc(-c3ccc(O)c(N4CC(=O)NS4(=O)=O)c3F)cnc21 [Compound 156]           ≥ 6.00
3  O=C1CN(c2c(O)ccc(-c3cnn(C4CC4)c3)c2F)S(=O)(=O)N1 [Compound 133]           ≥ 6.00
4  O=C1CN(c2c(O)ccc(-c3cn(-c4cccc(F)c4)cn3)c2F)S(=O)(=O)N1 [Compound 181]           ≥ 6.00
5  O=C1CN(c2c(O)ccc(-c3cnn(C4CC4(F)F)c3)c2F)S(=O)(=O)N1 (centres unmarked) [Compound 424]           ≥ 6.00
6  O=C1CN(c2c(Cl)ccc(-c3cc(C4CC4)n[nH]3)c2F)S(=O)(=O)N1 [Compound 487]           < 6.00
7  N#Cc1ccc(Cn2cc(-c3ccc(O)c(N4CC(=O)NS4(=O)=O)c3F)cn2)cc1F [Compound 157]           ≥ 6.00
8  O=C1CN(c2c(O)ccc(-c3cc(C4CC4)n(CC4CC4)n3)c2F)S(=O)(=O)N1 [Compound 409]           ≥ 6.00

If you can, please state the reported pIC50 value of Cn1nc(-c2ccc(O)c(N3CC(=O)NS3(=O)=O)c2F)cc1CCC#N [Compound 432] .
≥ 6.00

What pIC50 value was documented for this molecule, CC(C)CCn1cc(-c2ccc(O)c(N3CC(=O)NS3(=O)=O)n2)cn1 [Compound 134] ?
< 6.00

For the molecule CN1CC(n2cc(-c3ccc(O)c(N4CC(=O)NS4(=O)=O)c3F)cn2)C1 [Compound 310] , what pIC50 is on record?
≥ 6.00

Any idea what its pIC50 is? The molecule is O=C1CN(c2c(O)ccc(-c3cc(C4CC4)n[nH]3)c2F)S(=O)(=O)N1 [Compound 421]
≥ 6.00

Any idea what pIC50 was measured for CN1CC2(C1)CN(c1cc(-c3ccc(O)c(N4CC(=O)NS4(=O)=O)c3F)[nH]n1)C2 [Compound 252] ?
≥ 6.00

Give the measured pIC50 of O=C1CN(c2c(O)ccc(-c3ccc(NC(=O)C4CC4(F)F)cc3)c2F)S(=O)(=O)N1 (centres unmarked) [Compound 403] .
≥ 6.00

For the molecule Cn1ccc(-c2ccc(F)c(N3CC(=O)NS3(=O)=O)c2F)c1 [Compound 116] , what pIC50 is on record?
< 6.00

Return reported pIC50; argument: Cn1cc(-c2ccc(O)c(N3CC(=O)NS3(=O)=O)c2F)cn1 [Compound 227]
≥ 6.00

Quick check: pIC50 of O=C1CN(c2c(O)ccc(-c3cnn(CC(F)(F)F)c3)c2F)S(=O)(=O)N1 [Compound 366] ?
≥ 6.00

###

Target protein (sequence): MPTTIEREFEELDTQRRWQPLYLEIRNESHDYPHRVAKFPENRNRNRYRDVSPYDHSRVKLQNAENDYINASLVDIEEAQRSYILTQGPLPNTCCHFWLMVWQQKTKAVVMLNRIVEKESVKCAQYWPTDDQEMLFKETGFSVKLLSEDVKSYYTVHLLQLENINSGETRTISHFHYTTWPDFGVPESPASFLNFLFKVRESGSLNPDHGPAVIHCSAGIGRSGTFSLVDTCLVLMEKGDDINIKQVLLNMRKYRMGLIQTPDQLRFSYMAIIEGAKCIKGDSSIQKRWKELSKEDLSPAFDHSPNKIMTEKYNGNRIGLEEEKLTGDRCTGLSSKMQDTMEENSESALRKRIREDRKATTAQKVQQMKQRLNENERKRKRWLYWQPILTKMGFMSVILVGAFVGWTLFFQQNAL
pIC50: −log10 of the molar value.
QUANTITY_NAME: pIC50

Report pIC50 for O=C1CN(c2c(O)ccc(C3CCC(NS(=O)(=O)C4CC4)CC3)c2F)S(=O)(=O)N1 (stereo not shown) [Compound 450] please.
≥ 6.00
